# System: RXF 393
# EXPERIMENT DESCRIPTION: NCI tumour cell line growth inhibition, 48 h
The source made the active and inactive calls. Cut-off read from the data, not from the text of the source: active = GI50 up to about 1.1 µM and inactive = higher.
Parameter GI50: see the listing below.
METRIC: GI50

1. COC(=O)C(CCSC)NC(=O)CNC(=O)CSc1nnc(COc2ccc(Cl)cc2)n1-c1ccccc1 (stereo unspecified) | 18.6 µM (inactive)
2. O=C([O-])C(O)C(O)C(O)C(O)C(=O)O.[K+] (stereo unspecified) | > 100 µM (inactive)
3. Cc1nn(C(=O)c2ccccc2O)c2c1C(c1ccccc1)SC(=N)N2 (stereo unspecified) | > 10 µM (inactive)
4. C[C@@H](Oc1ccc(Oc2cnc3ccc(Cl)cc3n2)cc1)C(=O)O [R(+)XK469] | > 100 µM (inactive)
5. c1csc(-c2ccsc2-c2cccs2)c1 | 44.9 µM (inactive)
6. O=C(/C=C\c1ccc(/C=C/C(=O)Nc2cccc(C3=NCCCN3)c2)cc1)Nc1cccc(C2=NCCCN2)c1 | > 100 µM (inactive)
7. C=C1CC/C=C(\C)CCC[C@H](C)[C@@H](O)[C@@H]2OC(=O)C(=C)[C@@H]2C[C@H]1O | 4.25 µM (inactive)
8. CCOC(=O)/C=C1\Nc2ccccc2-n2nnnc21 | > 100 µM (inactive)
9. CC(C)C1CC(O)O[C@@H]([C@@H](C)[C@H]2CC(=O)[C@@H]3[C@@H]4[C@@H](O)[C@H](O)[C@H]5[C@@H](O)[C@H](O)CC[C@]5(C)[C@H]4CC[C@]23C)C1 (stereo partly specified) | 13.3 µM (inactive)
10. CCCCC/C(C=O)=C\c1ccccc1 | > 100 µM (inactive)
11. CC(C)(C)c1c2c(c(C(C)(C)C)c3c1OCN(Cc1ccccc1)C3)OCN(Cc1ccccc1)C2 | 14.7 µM (inactive)
